test system: E. coli K-12 MG1655; assay: microbe, parasite or virus in culture; format: cell-based, Escherichia coli; conditions: Escherichia coli, MG1655, read-out: MIC of MG1655 under the pressure of the same drug, generation primary
valueKind: MIC (µg/mL)
Answers are plain numbers, in µg/mL.

Reference set (3 entries):
1) COc1cc(Cc2cnc(N)nc2N)cc(OC)c1OC :: 64
2) CC1(C)S[C@@H]2[C@H](NC(=O)[C@H](N)c3ccccc3)C(=O)N2[C@H]1C(=O)O :: 4
3) CC[C@H]1OC(=O)[C@H](C)[C@@H](O[C@H]2C[C@@](C)(OC)[C@@H](O)[C@H](C)O2)[C@H](C)[C@@H](O[C@@H]2O[C@H](C)C[C@H](N(C)C)[C@H]2O)[C@](C)(O)C[C@@H](C)CN(C)[C@H](C)[C@@H](O)[C@]1(C)O :: 2

I would be grateful if you could provide MIC for each of the following entries.
1. O=C(N[C@H](CO)[C@H](O)c1ccc([N+](=O)[O-])cc1)C(Cl)Cl
2. C[C@H]1c2cccc(O)c2C(=O)C2=C(O)[C@]3(O)C(=O)C(C(N)=O)=C(O)[C@@H](N(C)C)[C@@H]3[C@@H](O)[C@@H]21

Solution:
1: 8; 2: 2

Problem: Return MIC measured with E. coli K-12 MG1655 given this compound: "O=C1CN(/N=C/c2ccc([N+](=O)[O-])o2)C(=O)N1"
Solution: 16

###

system: KAN80 (evolved MG1655); experiment: microbe, parasite or virus in culture; type: cell-based, Escherichia coli; conditions: Escherichia coli, MG1655; broth microdilution; kanamycin-evolved strain
valueKind: MIC (µg/mL)
Numbers only, in µg/mL.

Reference set (5 entries):
1) O=C(N[C@H](CO)[C@H](O)c1ccc([N+](=O)[O-])cc1)C(Cl)Cl [CHL, Chloramphenicol] :: 2
2) COc1cc(Cc2cnc(N)nc2N)cc(OC)c1OC [TMP, Trimethoprim] :: 128
3) CC[C@H]1OC(=O)[C@H](C)[C@@H](O[C@H]2C[C@@](C)(OC)[C@@H](O)[C@H](C)O2)[C@H](C)[C@@H](O[C@@H]2O[C@H](C)C[C@H](N(C)C)[C@H]2O)[C@](C)(O)C[C@@H](C)CN(C)[C@H](C)[C@@H](O)[C@]1(C)O [AZI, Azithromycin] :: 2
4) O=C1CN(/N=C/c2ccc([N+](=O)[O-])o2)C(=O)N1 [NIT, Nitrofurantoin] :: 8
5) CC1(C)S[C@@H]2[C@H](NC(=O)[C@H](N)c3ccccc3)C(=O)N2[C@H]1C(=O)O [AMP, Ampicillin] :: 4

Problem: Return MIC measured with KAN80 (evolved MG1655) given this compound: C[C@H]1c2cccc(O)c2C(=O)C2=C(O)[C@]3(O)C(=O)C(C(N)=O)=C(O)[C@@H](N(C)C)[C@@H]3[C@@H](O)[C@@H]21 [DOX, Doxycycline]
Solution: 1

###

test system: CHL80 (evolved MG1655); experiment: microbe, parasite or virus in culture; format: cell-based, Escherichia coli; conditions: Escherichia coli, MG1655; broth microdilution; chloramphenicol-evolved strain
valueKind: MIC (µg/mL)
Answers are plain numbers, in µg/mL.

1. CC1(C)S[C@@H]2[C@H](NC(=O)[C@H](N)c3ccccc3)C(=O)N2[C@H]1C(=O)O :: 64
2. C[C@H]1c2cccc(O)c2C(=O)C2=C(O)[C@]3(O)C(=O)C(C(N)=O)=C(O)[C@@H](N(C)C)[C@@H]3[C@@H](O)[C@@H]21 :: 16
3. COc1cc(Cc2cnc(N)nc2N)cc(OC)c1OC :: 128
4. CC[C@H]1OC(=O)[C@H](C)[C@@H](O[C@H]2C[C@@](C)(OC)[C@@H](O)[C@H](C)O2)[C@H](C)[C@@H](O[C@@H]2O[C@H](C)C[C@H](N(C)C)[C@H]2O)[C@](C)(O)C[C@@H](C)CN(C)[C@H](C)[C@@H](O)[C@]1(C)O :: 2
5. O=C1CN(/N=C/c2ccc([N+](=O)[O-])o2)C(=O)N1 :: 4

Now let's try a different one.
Problem: Which measured MIC value corresponds to "O=C(N[C@H](CO)[C@H](O)c1ccc([N+](=O)[O-])cc1)C(Cl)Cl" ?
Solution: 512
